System: SW-620 colon
method_notes: NCI-60 one-dose screen, 48 h
measurement_conditions: 10 µM unless noted
The panel holds about 83,000 compounds, 20% with a hit somewhere; the sample as a whole holds those more often. Activity calls are given as the source filed them. Rule for the calls: active = growth percent below 10; inactive = the rest.
# output must be one of active, inactive

Past entries and their recorded results:
compound	class_name
CCN1C(=O)N(CC)C2SC(N/N=C/c3ccc(F)cc3)=NC21 (configuration not stated)	inactive
O=C1CSC(=O)N1Cc1cc2ccccc2nc1Cl	inactive
Cn1cc(-c2nn3cc(-c4ccncc4)nc3s2)c2cc(Cl)ccc21	inactive
Cc1cn(-c2cc(NC(=O)c3cncc(C#Cc4cnc5ccc(O[C@H]6CCOC6)nn45)c3)cc(C(F)(F)F)c2)cn1	inactive
CN(C)c1ccc(/C=N/Nc2nc(N/N=C/c3ccc(N(C)C)cc3)nc(N3CCOCC3)n2)cc1	inactive
Cc1ccc(NC(=O)c2ccc(CN3CCN(C)CC3)c(C(F)(F)F)c2)cc1Oc1ccc(-c2[nH]nc3ncnc(N)c23)cc1	inactive
O=C1NC(=O)c2c1c1c3ccccc3ccc1c1[nH]c3ccccc3c21	inactive
COc1cc(C(=O)C[n+]2ccc3ccccc3c2)cc(OC)c1OC	inactive

Q: State the result this test recorded for COC(=O)[C@@]1(C)CC[C@]2(C)CC[C@]3(C)C(=CC(=O)[C@@H]4[C@@]5(C)Cc6c(n(CC#CCN7CCN(C)CC7)c7ccccc67)C(C)(C)[C@@H]5CC[C@]43C)[C@@H]2C1 .
Result: active

Q: // return assay outcome for CC(C)(C)n1nnnc1C(Nc1nccs1)c1cc2cccc3ccc4cccc1c4c32 (configuration not stated)
Result: inactive

Q: Can you look up the reported call for C/C(Cc1ccc(Cl)cc1)=C(/c1ccccc1)c1ccc(OCCN)cc1 for me?
Result: inactive

====

Would you mind telling me the reported growth of each entry?
Test system: OVCAR-4 ovarian
method_notes: NCI-60 one-dose screen, 48 h (100 = growth as untreated, 0 = no growth, -100 = all killed)
measurement_conditions: 10 µM unless noted
This is part of a sample that, as a whole, favours compounds with a hit. Of some 83,000 tested, about 20% had one in any assay.
Give bare numbers, in %.

item_smiles	target_under_test	display_unit	growth
O=S(=O)(Nc1ccc(-n2cnc3cc(-c4ccc(O)cc4)ccc32)cc1)C1CC1	OVCAR-4 ovarian	%	78.2
COc1ccc(-c2cc(-c3cccc4ccccc34)n3c(n2)nc2ccccc23)cc1	OVCAR-4 ovarian	%	64.8
CS(=O)(=O)c1ccc(-c2nn(-c3ccccc3)cc2/C=N/NC(=O)c2ccncc2)cc1	OVCAR-4 ovarian	%	104
IP(CCCCCCCCCCSc1n(Cc2ccc3ccccc3c2)c(-c2ccccc2)c(-c2ccccc2)[n+]1Cc1ccc2ccccc2c1)(c1ccccc1)(c1ccccc1)c1ccccc1	OVCAR-4 ovarian	%	-68.6
COc1ccc(CCN2C(=O)/C(=C/c3nc(CO)cs3)SC2=S)cc1	OVCAR-4 ovarian	%	91.8
COCCOc1ccc(-c2csc(NC(C)=O)n2)cc1NS(=O)(=O)c1cccc2c(N(C)C)cccc12	OVCAR-4 ovarian	%	86.8

Here are 3 compounds. What values of growth were reported for them?
1. O=C(/C=C/c1cn(-c2ccccc2)nc1-c1ccc(Cl)cc1)c1cc2ccccc2oc1=O
2. CC1CCN(S(=O)(=O)c2ncsc2-c2ccccc2)CC1
3. CC1=C2C(=C[C@@](C)(COS(N)(=O)=O)[C@@H]2O)C(=O)[C@](C)(O)C12CC2

Result:
57.2
88.5
80.8

====

Tested on: HOP-62 NSCLC
method_notes: NCI-60 one-dose screen, 48 h
measurement_conditions: 10 µM unless noted
This is part of a sample that, as a whole, favours compounds with a hit. Of some 83,000 tested, about 20% had one in any assay. Active and inactive are the calls of the source. The calls were made as follows: active = growth percent below 10; inactive = the rest.
The categories you may choose from are true (1) for active, false (0) for inactive

See these solved cases before continuing.
item_smiles	class_name
C=CCn1c(SCC(=O)Nc2cccc(C(=O)/C=C/c3ccccc3Cl)c2)nc2ccccc2c1=O	false (0)
O=C1NC(=O)/C(=C/c2ccc(OCc3cc4ccccc4nc3Cl)cc2)S1	false (0)
Cc1cc2nc(C(Cl)Cl)nc(-c3ccco3)n2n1	false (0)
CCOc1ccc2nc(NC(=O)Nc3ccccc3C)sc2c1	false (0)

Q: Recorded test outcome, item COc1cc(O)c2c(c1)[C@H]1O[C@@H]1C[C@H](O)[C@H](O)C(=O)/C=C\C[C@H](C)OC2=O
Result: false (0)

Q: Query: recorded result category for O=C(NCCNc1cc(-c2cn(-c3ccccc3)nc2-c2cccc(O)c2)ccn1)Nc1ccc(Cl)c(C(F)(F)F)c1 in this test
Result: false (0)

Q: Test call for this compound, please: Cc1ccc(NC(=O)c2cc(/C=C/C(=O)NO)cc(C(F)(F)F)c2)cc1Nc1nccc(-c2cccnc2)n1
Result: true (1)

Q: Called result for O=C(Nc1cccc(Cl)c1)Nc1nc2ccc([N+](=O)[O-])cc2s1
Result: true (1)

Q: Hey, what did the test say about Cc1ccc(-c2cc(-c3ccc(N(C)C)cc3)n3c(n2)nc2ccccc23)cc1 ?
Result: false (0)

Q: Assay result, entry COc1ccc(N)cc1C(=O)Nc1cccc(-c2cc(=O)c3c(OC)c(OC)c(OC)cc3o2)c1 — outcome?
Result: false (0)

Q: Call for entry CCN1C/C(=N\S(=O)(=O)c2ccccc2)N(CC)C1=S :
Result: false (0)

Q: How was O=S(=O)(Nc1ccc(I)c(Cl)c1)c1ccc(-c2cnc(C3CC3)o2)cc1 classified in this test?
Result: false (0)

Q: For COc1ccc(/C=C/C(=O)c2nnn(-c3ccc(Br)cc3)c2C)cc1OC , what call appears in the results of this test?
Result: false (0)

Q: In this assay, the call recorded for O=C(Nc1cc(Cl)cc(Cl)c1)Nc1nc2ccc([N+](=O)[O-])cc2s1 was what?
Result: true (1)

====

Tested on: UACC-62 melanoma
method_notes: NCI-60 one-dose screen, 48 h (100 = growth as untreated, 0 = no growth, -100 = all killed)
measurement_conditions: 10 µM unless noted
Procedure: Growth inhibition of the UACC-62 human tumor cell line is measured as a screen for anti-cancer activity. Cells are grown in 96 well plates and exposed to the test compound for 48 hours. Compounds are tested at a single concentration, which is 10^-5 M for most compounds. The reported endpoint is percent growth (GI% or GIPRCNT), where numbers from 0 - 100% represent growth inhibition, and numbers from -100% - 0 represent cell death. For example, a value of 40 represents 60% growth inhibition. […]
Compounds without any hit were thinned out: in the full panel of roughly 83,000, 20% have a hit. Active and inactive are the calls of the source. How the source made its calls: active means growth percent below 10; inactive means the rest.
measured_quantity: growth

Below: 3 compounds and their reported growth.
compound	measured_value
N=c1c2cc(-c3ccccc3)oc2ncn1/N=C/c1ccccc1	47.6% (inactive)
CC[C@]12C=CCN3CC[C@]4(C(=C(C(=O)OC)C1)Nc1cc5c(cc14)[C@@H]1[C@H](O5)[C@@H](O)[C@@]4(CC)CC(C(=O)OC)=C5Nc6cc(OC)ccc6[C@@]56CCN1[C@@H]46)[C@@H]32	8.98% (active)
CCc1ccc(NC(=O)N[C@@H](Cc2cccc(F)c2)C(=O)N[C@@H]2C(=O)N3CCC[C@H]3C(=O)N3CCCC[C@H]3C(=O)N[C@@H](CO)C(=O)N3C[C@H](C)C[C@H]3C(=O)O[C@H]2C)c(F)c1	27.2% (inactive)

Hi, could you look up growth for each item in my list?
1. COc1ccc(OC)c([C@H]2c3[nH]c4ccccc4c3C[C@H]3C(=O)N(CCCCCCC(=O)NO)CC(=O)N23)c1
2. O=C(NNc1nc2cc(F)c(F)cc2n2cccc12)c1ccncn1

Result:
53.1% (inactive)
19% (inactive)

====

Test system: DU-145 prostate
method_notes: NCI-60 one-dose screen, 48 h (100 = growth as untreated, 0 = no growth, -100 = all killed)
measurement_conditions: 10 µM unless noted
Compounds without any hit were thinned out: in the full panel of roughly 83,000, 20% have a hit.
Sorting guide: entries reporting growth beneath 30% go in the yes (1) pile, the rest go in the no (0) pile.

Q: State whether 30% exceeds growth recorded for C=CCn1c(SCC(=O)Nc2cccc(C(=O)/C=C/c3ccc(Br)cc3)c2)nc2ccccc2c1=O .
Result: no (0)

Q: # TODO verify growth < 30% strictly for this compound: O=S(=O)(Nc1ccc2c(c1)OC(F)(F)O2)c1ccc(-c2cnc(C3CC3)o2)cc1
Result: no (0)

Q: Determine whether this compound shows growth lower than 30% (ties excluded): c1ccc(-c2n(Cc3ccc4ccccc4c3)c3c4ccccc4c4ccccc4c3[n+]2Cc2ccc3ccccc3c2)cc1
Result: yes (1)

Q: Answer whether the compound Cc1cc(-c2ccc3nc(N)sc3c2)nc2ccc3[nH]ncc3c12 has growth strictly less than 30%
Result: no (0)

Q: Report whether reported growth is lower than 30% (strictly) for COc1ccc([C@@H]2[C@@H](O)C(=O)N2c2cc(OC)c(OC)c(OC)c2)cc1Cl
Result: yes (1)
